Every entry's value here was drawn from patent US20260151494A1.

test target: T1, human apical domain of CD71 (human, UniProt P02786 189-383, limits assumed)
T1 construct: domain: apical domain
T1 sequence (P02786 189-383 limits assumed): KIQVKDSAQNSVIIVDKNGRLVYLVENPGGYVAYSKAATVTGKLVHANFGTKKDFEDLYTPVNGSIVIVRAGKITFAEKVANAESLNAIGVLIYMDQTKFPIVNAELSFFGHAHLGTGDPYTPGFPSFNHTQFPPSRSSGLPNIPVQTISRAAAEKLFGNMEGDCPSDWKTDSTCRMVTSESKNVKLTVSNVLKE
procedure text: primary ELISA; further: test concentration or dose not given here
observable: RLU

1) CD71-binding FN3 domain SEQ ID NO 412 (designed binder) MLPAPKNLVVSRVTEDSARLSWTAPDAAFDSFFIGYLEPQPPGEAIGLLVPGSERSYDLTGLKPGTEYNVTIQGVKGGFPSHPLLAVFTT | 6e+06 RLU
2) CD71-binding FN3 domain SEQ ID NO 414 (designed binder) MLPAPKNLVVSRVTEDSARLSWTAPDAAFDSFFIGYLEPQPPGEAIHLYVPGSERSYDLTGLKPGTEYNVTIQGVKGGFPSHPLIANFTT | 6.18e+06 RLU
3) CD71-binding FN3 domain SEQ ID NO 369 (designed binder) MLPAPKNLVVSRVTEDSARLSWTAPDAAFDSFFIGYLEPQPPGEAIVLWVPGSERSYDLTGLKPGTEYNVTIQGVKGGFPSHPLVAKSTT | 3.66e+06 RLU
4) CD71-binding FN3 domain SEQ ID NO 430 (designed binder) MLPAPKNLVVSRVTEDSARLSWTAPDAAFDSFFIGYLEPQPPGEAIDLWVPGSERSYDLTGLKPGTEYNVTIQGVKGGFPSYPLSASFTT | 3.58e+06 RLU
5) CD71-binding FN3 domain SEQ ID NO 434 (designed binder) MLPAPKNLVVSRVTEDSARLSWTAPDAAFDSFFIGYLEPQPPGEAIGLQVPGSERSYDLTGLKPGTEYNVTIQGVKGGFPSDPLQAIFTT | 4.03e+06 RLU
6) CD71-binding FN3 domain SEQ ID NO 437 (designed binder) MLPAPKNLVVSRVTEDSARLSWTAPDAAFDSFFIGYLEPQPPGEAISLWVPGSERSYDLTGLKPGTEYNVTIQGVKGGFPSTPLSAKFTT | 2.82e+06 RLU
7) CD71-binding FN3 domain SEQ ID NO 420 (designed binder) MLPAPKNLVVSRVTEDSARLSWTAPDAAFDSFFIGYLEPQPPGEAIHLQVPGSERSYDLTGLKPGTEYNVTIHGVKGGIPSMPLSAKFTT | 3.93e+06 RLU
8) CD71-binding FN3 domain SEQ ID NO 408 (designed binder) MLPAPKNLVVSRVTEDSARLSWTAPDAAFDSFFIGYLEPQPPGEAIGLWVPGSERSYDLTGLKPGTEYNVTIQGVKGGFPSMPLSAIFTT | 3.23e+06 RLU
9) CD71-binding FN3 domain SEQ ID NO 402 (designed binder) MLPAPKNLVVSRVTEDSARLSWTAPDAAFDSFGIYYWEYTGGEAIVLTVPGSERSYDLTGLKPGTEYVVRILGVKGGAYSTPLSAIFTT | 4.77e+06 RLU
10) CD71-binding FN3 domain SEQ ID NO 372 (designed binder) MLPAPKNLVVSRVTEDSARLSWTAPDAAFDSFFIGYLEPQPPGEAINLLVPGSERSYDLTGLKPGTEYNVTIQGVKGGFPSLPLLAEFTT | 4.63e+06 RLU
11) CD71-binding FN3 domain SEQ ID NO 440 (designed binder) MLPAPKNLVVSRVTEDSARLSWTAPDAAFDSFEIVYAEWTQHGEAIVLTVPGSERSYDLTGLKPGTEYYVHIGGVKGGKWSPPLYAIFTT | 4.88e+06 RLU
12) CD71-binding FN3 domain SEQ ID NO 436 (designed binder) MLPAPKNLVVSRVTEDSARLSWTAPDAAFDSFFIGYLEPQPPGEAIHLLVPGSERSYDLTGLKPGTEYNVTIQGVKGGFPSEPLWAKFTT | 5.66e+06 RLU
13) CD71-binding FN3 domain SEQ ID NO 411 (designed binder) MLPAPKNLVVSRVTEDSARLSWTAPDAAFDSFFIGYLEPQPPGEAISLFVPGSERSYDLTGLKPGTEYNVTIQGVKGGFPSVPLSATFTT | 6.36e+06 RLU
14) CD71-binding FN3 domain SEQ ID NO 409 (designed binder) MLPAPKNLVVSRVTEDSARLSWTAPDAAFDSFFIGYLEPQPPGEAIHLFVPGSERSYDLTGLKPGTEYNVTIQGVKGGFPSNPLSAQFTT | 6.2e+06 RLU
15) CD71-binding FN3 domain SEQ ID NO 348 (designed binder) MLPAPKNLVVSRVTEDSARLSWTAPDAAFDSFEISYFENTWYGEAIVLTVPGSERSYDLTGLKPGTEYVVWIGGVKGGLWSKPLSAIFTT | 4.8e+06 RLU
16) CD71-binding FN3 domain SEQ ID NO 393 (designed binder) MLPAPKNLVVSRVTEDSARLSWTAPDAAFDSFFIGYLEPQPPGEAIGLFVPGSERSYDLTGLKPGTEYNVTIQGVKGGFPSLPLQAHFTT | 6.09e+06 RLU
17) CD71-binding FN3 domain SEQ ID NO 418 (designed binder) MLPAPKNLVVSRVTEDSARLSWTAPDAAFDSFEIAYFENSYYGEAIVLTVPGSERSYDLTGLKPGTEYAVYIGGVKGGSWSNPLSAISTT | 5.05e+06 RLU
18) CD71-binding FN3 domain SEQ ID NO 396 (designed binder) MLPAPKNLVVSRVTEDSARLSWTAPDAAFDSFFIGYLEPQPPGEAIYLTVPGSERSYDLTGLKPGTEYNVTIQGVKGGFPSMPLSAIFTT | 2.47e+06 RLU
